biological target: Activated human plasma kallikrein (Enzyme Research Laboratories, HPKa 1303) (human, UniProt P03952 20-638); experiment: cell-based or functional assay
Sequence (P03952 20-638 limits assumed): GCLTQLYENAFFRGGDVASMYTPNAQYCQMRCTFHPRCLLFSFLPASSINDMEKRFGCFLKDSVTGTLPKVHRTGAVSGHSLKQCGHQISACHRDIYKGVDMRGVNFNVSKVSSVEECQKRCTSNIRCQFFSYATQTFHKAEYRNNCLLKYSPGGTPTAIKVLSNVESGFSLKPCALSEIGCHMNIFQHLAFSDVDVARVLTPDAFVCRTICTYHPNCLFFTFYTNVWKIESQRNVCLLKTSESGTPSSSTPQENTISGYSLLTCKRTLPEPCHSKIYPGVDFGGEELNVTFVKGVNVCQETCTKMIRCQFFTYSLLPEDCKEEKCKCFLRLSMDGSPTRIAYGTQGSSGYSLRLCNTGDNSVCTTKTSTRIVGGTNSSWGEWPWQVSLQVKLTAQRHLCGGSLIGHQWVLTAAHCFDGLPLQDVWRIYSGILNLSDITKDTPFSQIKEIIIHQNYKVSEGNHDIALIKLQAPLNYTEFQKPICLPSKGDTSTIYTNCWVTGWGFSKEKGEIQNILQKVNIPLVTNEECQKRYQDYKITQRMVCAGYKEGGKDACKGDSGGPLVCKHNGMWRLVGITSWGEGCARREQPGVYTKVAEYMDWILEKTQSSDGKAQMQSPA
Numbered stars: 1 amine (or outer) side, 2 acyl side, 3 side chain; on linkers, the order of the positions; unused ones are H or OH. Bridge positions count the residues as written; N and C are the ends. Square brackets hold non-standard residues; d marks the D form. Ends that are not written are not given here. mXylyl = xylyl linker from dibromoxylene joining the two cysteines; des‑NH2 = missing amino-terminal amine group; Phe(4-CH2NH2) = NCc1ccc(C[C@H](N)C(=O)O)cc1; pXylylene = c1cc(C[*:2])ccc1C[*:1]; dPhg = N[C@@H](C(=O)O)c1ccccc1; Chg = N[C@H](C(=O)O)C1CCCCC1; Phg = N[C@H](C(=O)O)c1ccccc1; Tle = CC(C)(C)[C@H](N)C(=O)O; Tranexamic = tranexamic acid; NMeV = CN[C@H](C(=O)O)C(C)C; hLys = NCCCCC[C@H](N)C(=O)O; Nva = CCC[C@H](N)C(=O)O; Thp = NC1(C(=O)O)CCOCC1
Decide using Avg. IC50 alone. Strictly below 2000 nM: TRUE. Equal to or above 2000 nM: FALSE.

Req: Would you kindly verify if Avg. IC50 of Ac-C[dA]S[dPhg]CR[Tle]-NH2 (linker 1-5 via mXylyl) [R2060] is strictly less than 2000 nM?
Resp: TRUE

Req: Query MCESICRE-NH2 (linker 2-6 via mXylyl) [R2087] next
Resp: FALSE

Req: Also need Ac-CAS[Phg]C[Phe(4-CH2NH2)][Tle]-NH2 (linker 1-5 via mXylyl) [R2053] , thanks.
Resp: FALSE

Req: Here is the next binder: {des‑NH2}-C[Thp]A[Phg]CR[Tle]-NH2 (linker 1-5 via mXylyl) [R2095]
Resp: TRUE

Req: Please answer likewise for Ac-CAP[Phg]CR[Tle]-NH2 (linker 1-5 via mXylyl) [R2058]
Resp: TRUE

Req: What do you get for Ac-CASVCRV-NH2 (linker 1-5 via mXylyl; not fully specified (residue 2); printed as [mXylyl(1,5)]Ac-C-a-SVCRV-NH2) [R2063] ?
Resp: TRUE

Req: Moving on to {des‑NH2}-C[Phg]CR[Tle]-NH2 (linker 1-3 via pXylylene; not fully specified (residue 1); printed as [pXylyl(1,5)](des-NH2)C-Phg-CR-Tbg-NH2) [R2084]
Resp: TRUE

Req: Now give it for MCESICRV-NH2 (linker 2-6 via trans‑butenyl) [R2011] too.
Resp: FALSE

Req: Could you do the same for {des‑NH2}-C[Thp]A[Chg]CR[Tle]-NH2 (linker 1-5 via mXylyl) [R2100] , please?
Resp: TRUE

Req: What about this binder? CESICRV-NH2 (linker 1-5 via mXylyl) [R2085]
Resp: TRUE

Req: What would you report for CAS[Phg]CR[Tle]-NH2 (linker 1-5 via mXylyl) [R2039] ?
Resp: TRUE

Req: // repeat for MCESICR-NH2 (linker 2-6 via mXylyl) [R2015] and report
Resp: FALSE

Req: # iterate: MCEAICRV-NH2 (linker 2-6 via mXylyl) [R2018]
Resp: TRUE

Req: Follow-up entry: Ac-CAS[Phg]CR[Tle]-NH2 (linker 1-5 via mXylyl; not fully specified (residue 2); printed as [mXylyl(1,5)]Ac-C-a-S-Phg-CR-Tbg-NH2) [R2061]
Resp: TRUE

Req: Next entry: {des‑NH2}-CAAICRV-NH2 (linker 1-5 via mXylyl; not fully specified (residue 1); printed as [mXylyl(1,5)](des-NH2)C-AAICRV-NH2) [R2072]
Resp: TRUE

Req: And what about the binder {des‑NH2}-C[Tranexamic][dPhg]CR[Tle]-NH2 (linker 1-4 via mXylyl (inferred); not fully specified; printed as [mXylyl(1,5)](des-NH2)C-Tranexamic-(D)Phg-CR-Tbg-NH2) [R2081] ?
Resp: FALSE

Req: Moving on to the next binder: Ac-[Nva]CESIC[hLys]V-NH2 (linker 2-6 via mXylyl) [R2033]
Resp: FALSE

Req: Okay, and MCEYICRV-NH2 (linker 2-6 via mXylyl) [R2089] ?
Resp: TRUE

Req: Next entry: MCESICR[NMeV]-NH2 (linker 2-6 via mXylyl) [R2074]
Resp: FALSE

Req: Likewise for MCASICRV-NH2 (linker 2-6 via mXylyl) [R2024] ?
Resp: TRUE

Req: Then MCESICRA-NH2 (linker 2-6 via mXylyl) [R2016] ?
Resp: FALSE
